Numbers sourced from ChEMBL document CHEMBL1201862.

System: SF-295
MEASUREMENT DESCRIPTION: NCI tumour cell line growth inhibition, 48 h
Calls of active or inactive are those of the source. Rule as the data show it: active = GI50 up to about 1.1 µM and inactive = higher.
A correct response names exactly one class from active, inactive

Here are 2 molecules together with their reported answers.
- MOLECULE: "COc1cc(/C=C2/CCCc3ccccc3C2=O)cc(OC)c1OC"
  CLASS ASSIGNMENT: "inactive"
- MOLECULE: "CCCCCCCC1(N=[N+]=[N-])C(=O)c2ccccc2N(C)C1=O (stereo unspecified)"
  CLASS ASSIGNMENT: "inactive"

Would you mind telling me which call this test gave COc1ccc(Nc2nnc(-c3nsc4ccccc34)s2)cc1 ? inactive

Would you mind telling me which call this test gave O=C(N/N=C(/CCN1CCCC1)CC(c1ccccc1)c1c(O)c2ccccc2oc1=O)c1ccncc1 (stereo unspecified) ? inactive

Would you mind telling me which call this test gave CCOC(=O)CCC(NC(=O)c1ccc(OCc2nc3ccccc3n3cccc23)cc1)C(=O)OCC (stereo unspecified) ? inactive

Would you mind telling me which call this test gave CC(C)(C)OC(=O)NCCNCCNc1ccccc1 ? inactive

Would you mind telling me which call this test gave Nc1ccc2c(c1)C1=NNC(=O)CC1C2 (stereo unspecified) ? inactive

Would you mind telling me which call this test gave O=C(Nc1ccc2[nH]c(C(=O)N3CC(CCl)c4c3cc([N+](=O)[O-])c3ccccc43)cc2c1)Nc1ccc2[nH]c(C(=O)N3CC(CCl)c4c3cc([N+](=O)[O-])c3ccccc43)cc2c1 (stereo unspecified) ? inactive

Would you mind telling me which call this test gave COC(=O)N/N=C(\C)CC(=O)Nc1cccc([N+](=O)[O-])c1 ? inactive

Would you mind telling me which call this test gave N#CC(C(=O)C(=O)NCCCNC(=O)C(=O)C(C#N)c1ccccc1)c1ccccc1 (stereo unspecified) ? inactive

====

Tested on: KM12
MEASUREMENT DESCRIPTION: NCI tumour cell line growth inhibition, 48 h
Calls of active or inactive are those of the source. Cut-off read from the data, not from the text of the source: active = GI50 up to about 1.1 µM and inactive = higher.
MEASURED PARAMETER: GI50

- COMPOUND: "CN/N=C(/CC(=O)c1sc(NNC(C)=O)nc1C)C(=O)Nc1ccc(OC)cc1OC"
  GI50: "> 100 µM (inactive)"
- COMPOUND: "NC(=O)NC(=O)c1cnccn1"
  GI50: "> 100 µM (inactive)"
- COMPOUND: "c1ccc(-c2cc(-c3cccs3)c(-c3cccs3)s2)cc1"
  GI50: "14.9 µM (inactive)"

Parameter requested: GI50. Apply to each item below.
1. CCOC(=O)Cn1c(C)nc2nn(Cc3ccccc3)cc2c1=O
2. CC(=O)O[C@H]1CC[C@@]2(C)[C@H](CC[C@@H]3[C@@H]2CC[C@]2(C)[C@@H](c4ccc(=O)oc4)C[C@H]4O[C@]342)C1
3. O=C(O)C1(c2ccccc2)CCCNCC1 (stereo unspecified)
4. O=c1cc(N2CCCC2)[nH]c(=O)n1-c1ccc(Cl)cc1
5. CC(C)=CCc1c2c(c3occ(-c4ccc(O)cc4)c(=O)c3c1O)CC(C(C)(C)O)O2 (stereo unspecified) [SENEGALENSIN]

1: > 100 µM (inactive); 2: 2.36 µM (inactive); 3: > 100 µM (inactive); 4: > 100 µM (inactive); 5: 16.8 µM (inactive)

Parameter requested: GI50. Apply to each item below.
1. N#C/C(C(=S)NCc1ccccc1)=C(/N)N1CCCC1
2. CCOc1ccccc1NC(=O)C(=O)C(/C(=N/N)C(=O)OC)c1nc2ccc([N+](=O)[O-])cc2nc1O (stereo unspecified)
3. CC(=O)CCn1ncc(Cl)c(Cl)c1=O

1: > 100 µM (inactive); 2: > 100 µM (inactive); 3: 17.7 µM (inactive)
